Catalogue of compounds with associated IC50
- assayed system: human DP2 receptor (Homo sapiens)
- Construct: expressed in transfected cells
- Sequence (Q9Y5Y4 1-395): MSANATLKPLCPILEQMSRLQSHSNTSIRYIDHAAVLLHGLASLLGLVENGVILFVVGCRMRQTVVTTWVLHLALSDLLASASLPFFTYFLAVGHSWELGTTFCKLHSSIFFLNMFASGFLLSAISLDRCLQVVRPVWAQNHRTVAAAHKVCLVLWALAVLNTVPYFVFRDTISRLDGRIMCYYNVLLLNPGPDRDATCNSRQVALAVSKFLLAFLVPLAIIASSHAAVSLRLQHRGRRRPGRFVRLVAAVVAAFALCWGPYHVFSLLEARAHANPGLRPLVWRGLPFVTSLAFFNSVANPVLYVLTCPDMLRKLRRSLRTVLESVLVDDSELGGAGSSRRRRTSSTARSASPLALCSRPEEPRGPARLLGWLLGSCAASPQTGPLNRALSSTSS
- assay comment: DP2/CRTH2 radioligand binding assay ([3H]PGD2)
- stated conditions: membranes of HEK293 cells expressing recombinant human DP2, 1 nM [3H]PGD2; read-out: hDP2

>  <compound>
O=C(O)Cc1cccc(Oc2ccc(Br)cc2CS(=O)(=O)Cc2ccccc2)c1

>  <observable>
IC50

>  <result>
< 300 nM

$$$$
>  <compound>
COc1ccc(CC(=O)O)cc1Oc1ccc(-c2cnn(C)c2)cc1CSC(C)C

>  <observable>
IC50

>  <result>
< 300 nM

$$$$
>  <compound>
O=C(O)Cc1cccc(Oc2ccc(Br)cc2CSc2nccs2)c1

>  <observable>
IC50

>  <result>
< 300 nM

$$$$
>  <compound>
O=C(O)Cc1cccc(Oc2ccc(Br)cc2C[S+]([O-])CC(=O)O)c1 (stereo not drawn)

>  <observable>
IC50

>  <result>
> 1000 nM

$$$$
>  <compound>
COc1ccc(CC(=O)O)cc1Oc1ccc(C(=O)c2ccccc2)cc1CSC(C)C

>  <observable>
IC50

>  <result>
< 300 nM

$$$$

Ask: Which IC50 value is on record for COc1ccc(CC(=O)O)cc1Oc1ccc(Cl)cc1CS(=O)(=O)Cc1ccccc1 ?
Reply: < 300 nM

Ask: Give its IC50 value. Item: COc1ccc(CC(=O)O)cc1Oc1ccc(NS(=O)(=O)c2cccc3c(N(C)C)cccc23)cc1CSC(C)(C)C
Reply: < 300 nM

Ask: Consider the compound O=C(O)Cc1cccc(Oc2ccc(Br)cc2CSCc2ccccc2)c1 and give its measured IC50.
Reply: < 300 nM

Ask: Name the recorded IC50 for COc1ccc(CC(=O)O)cc1Oc1ccc(Cl)cc1C[S+]([O-])Cc1ccccc1 (stereo not drawn) .
Reply: 300 to 1000 nM
